# TARGET_ENTITY: Siglec-2 (CD22) (Homo sapiens)
# Sequence (P20273 20-847): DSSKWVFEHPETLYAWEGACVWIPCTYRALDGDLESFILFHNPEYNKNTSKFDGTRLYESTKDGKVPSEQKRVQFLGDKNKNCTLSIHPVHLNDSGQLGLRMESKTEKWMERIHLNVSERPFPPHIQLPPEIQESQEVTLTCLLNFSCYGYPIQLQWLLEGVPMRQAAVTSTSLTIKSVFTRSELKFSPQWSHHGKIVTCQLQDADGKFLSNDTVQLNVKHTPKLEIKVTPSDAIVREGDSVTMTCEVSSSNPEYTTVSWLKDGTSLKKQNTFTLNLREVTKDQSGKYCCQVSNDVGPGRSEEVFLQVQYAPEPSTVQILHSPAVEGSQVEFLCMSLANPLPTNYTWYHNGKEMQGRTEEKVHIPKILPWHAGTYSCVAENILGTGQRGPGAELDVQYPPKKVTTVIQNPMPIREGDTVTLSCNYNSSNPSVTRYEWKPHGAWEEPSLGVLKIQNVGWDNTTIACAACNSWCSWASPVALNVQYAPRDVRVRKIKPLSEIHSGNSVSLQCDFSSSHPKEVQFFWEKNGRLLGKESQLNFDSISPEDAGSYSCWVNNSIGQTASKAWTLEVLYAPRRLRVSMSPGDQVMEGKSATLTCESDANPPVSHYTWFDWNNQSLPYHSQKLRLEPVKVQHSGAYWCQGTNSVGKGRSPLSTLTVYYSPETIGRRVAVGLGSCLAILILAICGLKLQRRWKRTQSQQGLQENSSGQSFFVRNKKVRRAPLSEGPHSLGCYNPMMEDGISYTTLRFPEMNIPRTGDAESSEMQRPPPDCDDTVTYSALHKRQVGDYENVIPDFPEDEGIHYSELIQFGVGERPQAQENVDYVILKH
# PROCEDURE_TEXT: new affinity assay: displacement of biotinylated compound 155 from sialidase-treated Daudi cells, FACS with streptavidin-PE
# Type: binding
# Parameters: endogenous in cells; host or cells: Daudi (human B-cell lymphoma line)
# CONDITIONS_USED: Table II; rIP values set relative to compound 38; Daudi cells, displacement of compound 155
Binning rule for recorded rIP: lower = under 20, middle = from 20 up to 600, upper = 600 and over

1. CC(=O)N[C@H]1[C@H]([C@H](O)[C@H](O)CNC(=O)C#Cc2ccccc2)O[C@@](OCCCSCCNC(=O)c2ccc(-c3ccc(C(=O)NCCSCCCO[C@]4(C(=O)[O-])C[C@H](O)[C@@H](NC(C)=O)[C@H]([C@H](O)[C@H](O)CNC(=O)C#Cc5ccccc5)O4)cc3)cc2)(C(=O)[O-])C[C@@H]1O.[Na+].[Na+]    middle
2. CC(=O)N[C@H]1[C@H]([C@H](O)[C@H](O)CNC(=O)c2ccc(-c3ccccc3)cc2)O[C@@](OCCCSCCNC(=O)CCC(=O)NCCSCCCO[C@]2(C(=O)[O-])C[C@H](O)[C@@H](NC(C)=O)[C@H]([C@H](O)[C@H](O)CNC(=O)c3ccc(-c4ccccc4)cc3)O2)(C(=O)[O-])C[C@@H]1O.[Na+].[Na+]    middle
3. CC(=O)N[C@H]1[C@H]([C@H](O)[C@H](O)CNC(=O)c2ccc(Cl)cc2)O[C@@](OCCCSCCNC(=O)c2ccc(C(=O)NCCSCCCO[C@]3(C(=O)[O-])C[C@H](O)[C@@H](NC(C)=O)[C@H]([C@H](O)[C@H](O)CNC(=O)c4ccc(Cl)cc4)O3)cc2)(C(=O)[O-])C[C@@H]1O.[Na+].[Na+]    middle
4. CC(=O)N[C@H]1[C@H]([C@H](O)[C@H](O)CNC(=O)c2ccc(-c3ccccc3)cc2)O[C@@](OCCCSCCNC(=O)c2ccc(C(=O)NCCSCCCO[C@]3(C(=O)[O-])C[C@H](O)[C@@H](NC(C)=O)[C@H]([C@H](O)[C@H](O)CNC(=O)c4ccc(-c5ccccc5)cc4)O3)s2)(C(=O)[O-])C[C@@H]1O.[Na+].[Na+]    upper
5. CC(=O)N[C@H]1[C@H]([C@H](O)[C@H](O)CNC(=O)c2ccc(-c3ccccc3)cc2)O[C@@](OCCCSCCNC(=O)CSSCC(=O)NCCSCCCO[C@]2(C(=O)[O-])C[C@H](O)[C@@H](NC(C)=O)[C@H]([C@H](O)[C@H](O)CNC(=O)c3ccc(-c4ccccc4)cc3)O2)(C(=O)[O-])C[C@@H]1O.[Na+].[Na+]    middle
6. CC(=O)N[C@H]1[C@H]([C@H](O)[C@H](O)CNCc2ccc(-c3ccccc3)cc2)O[C@@](OCCCSCCNC(=O)c2ccc(C(=O)NCCSCCCO[C@]3(C(=O)[O-])C[C@H](O)[C@@H](NC(C)=O)[C@H]([C@H](O)[C@H](O)CNCc4ccc(-c5ccccc5)cc4)O3)cc2)(C(=O)[O-])C[C@@H]1O.[Na+].[Na+]    lower
7. CC(=O)N[C@H]1[C@H]([C@H](O)[C@H](O)CNC(=O)c2ccc3c(c2)C(=O)c2ccccc2-3)O[C@@](OCCCSCCNC(=O)c2ccc(C(=O)NCCSCCCO[C@]3(C(=O)[O-])C[C@H](O)[C@@H](NC(C)=O)[C@H]([C@H](O)[C@H](O)CNC(=O)c4ccc5c(c4)C(=O)c4ccccc4-5)O3)cc2)(C(=O)[O-])C[C@@H]1O.[Na+].[Na+]    middle
8. CC(=O)N[C@H]1[C@H]([C@H](O)[C@H](O)CNC(=O)c2ccc(-c3ccccc3)cc2)O[C@@](OCCCSCCNC(=O)C2CCC(C(=O)NCCSCCCO[C@]3(C(=O)[O-])C[C@H](O)[C@@H](NC(C)=O)[C@H]([C@H](O)[C@H](O)CNC(=O)c4ccc(-c5ccccc5)cc4)O3)CC2)(C(=O)[O-])C[C@@H]1O.[Na+].[Na+] (some centres unmarked)    upper

## Task Exercise: read the entry CC(=O)N[C@H]1[C@H]([C@H](O)[C@H](O)CNC(=O)c2ccc(-c3ccc([N+](=O)[O-])cc3[N+](=O)[O-])c([N+](=O)[O-])c2)O[C@@](OCCCSCCNC(=O)c2ccc(C(=O)NCCSCCCO[C@]3(C(=O)[O-])C[C@H](O)[C@@H](NC(C)=O)[C@H]([C@H](O)[C@H](O)CNC(=O)c4ccc(-c5ccc([N+](=O)[O-])cc5[N+](=O)[O-])c([N+](=O)[O-])c4)O3)cc2)(C(=O)[O-])C[C@@H]1O.[Na+].[Na+] and state which class it falls under.
## Result lower

## Task Exercise: read the entry CC(=O)N[C@H]1[C@H]([C@H](O)[C@H](O)CNC(=O)c2ccc(-c3ccccc3)cc2)O[C@@](OCCCSCCNC(=O)c2ccc(NC(=O)CCSCCCO[C@]3(C(=O)[O-])C[C@H](O)[C@@H](NC(C)=O)[C@H]([C@H](O)[C@H](O)CNC(=O)c4ccc(-c5ccccc5)cc4)O3)cc2)(C(=O)[O-])C[C@@H]1O.[Na+].[Na+] and state which class it falls under.
## Result upper

## Task Exercise: read the entry CC(=O)N[C@H]1[C@H]([C@H](O)[C@H](O)CNC(=O)c2ccc(-c3ccccc3)cc2)O[C@@](OCCCSCCNC(=O)c2ccc(C(=O)NCCSCCCO[C@]3(C(=O)[O-])C[C@H](O)[C@@H](NC(C)=O)[C@H]([C@H](O)[C@H](O)CNC(=O)c4ccc(-c5ccccc5)cc4)O3)nc2)(C(=O)[O-])C[C@@H]1O.[Na+].[Na+] and state which class it falls under.
## Result upper
